test: Mouse brain exposure; assay type: in vivo; conditions: brain relative to blood; Table 3; mouse; read-out: Mouse Brain exposure compared with blood AUC (%)
OUTCOME_MEASURE: Kp
Simply state the number, no unit and no words.

Record CN(C/C=C\CN)C[C@H]1O[C@@H](n2cnc3c(N)nc(Cl)nc32)[C@H](O)[C@@H]1O . Reported Kp: 0.0077

Record Cc1nc2c(N)ncnc2n1[C@@H]1O[C@H](CN(C)C/C=C\CN)[C@@H](O)[C@H]1O (stereo in doubt) . Reported Kp: 0.066

Record CN(C/C=C\CN)C[C@H]1O[C@@H](n2cnc3c(N)ncnc32)[C@H](F)[C@@H]1O (stereo in doubt) . Reported Kp: 0.0016
